Target: T1, soluble human ILT4-ECD (human, UniProt Q8N423 22-460)
T1 construct: also called LILRB2 extracellular domain
T1 sequence (Q8N423 other isoform, or with tags, fused parts or gaps): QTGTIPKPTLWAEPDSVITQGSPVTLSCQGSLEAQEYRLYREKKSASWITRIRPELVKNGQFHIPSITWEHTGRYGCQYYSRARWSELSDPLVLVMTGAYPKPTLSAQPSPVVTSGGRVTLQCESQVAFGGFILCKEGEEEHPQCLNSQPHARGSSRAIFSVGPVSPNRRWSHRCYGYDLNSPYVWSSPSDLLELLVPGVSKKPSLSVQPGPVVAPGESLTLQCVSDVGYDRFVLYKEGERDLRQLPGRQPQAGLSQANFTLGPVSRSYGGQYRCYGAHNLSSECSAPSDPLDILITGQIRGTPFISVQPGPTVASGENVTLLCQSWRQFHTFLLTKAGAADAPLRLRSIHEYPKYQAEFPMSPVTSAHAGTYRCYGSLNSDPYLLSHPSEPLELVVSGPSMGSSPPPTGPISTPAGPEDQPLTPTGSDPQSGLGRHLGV
Assay: SPR (Biacore) as described in Example 3
Description: The binding affinities of anti-ILT2 and anti-ILT4 antibodies were measured using a Biacore system (GE Healthcare LifeSciences). Equilibrium dissociation constant (KD) measurements were carried out with purified antibodies to evaluate their binding to human ILT2, human ILT4, and rhesus ILT2. […] The binding affinities of the humanized antibodies to human ILT2 and human ILT4 were measured using a Biacore system as described herein. […]
Readout Type: kon (M⁻¹ s⁻¹)
State just the number; it will be interpreted in M⁻¹ s⁻¹.

INPUT: Entry anti-ILT2/ILT4 antibody 47H6 (antibody, V domains shown, Mouse hybridoma antibody) VH: EVQLQQSGPELVKPGASVKISCKASGYTFTDYYMNWVKQSHGKSLEWIGDFNPNNGGTTYNQKFEGKATLTVDKSSNTAYMDLRSLTSEDSAVYYCARGRFYYGSLYSFDYWGQGTTLTVSS VL: DIQMTQSPASLSASVGETVTITCRASGNIHNYLAWYQQKQGKSPHLLVYNAKTLADGVPSRFSGSGSGTQYSLKINNLQPEDFGSYYCQHFWTSITFGAGTKLDLK : reported kon = ?
OUTPUT: 100000

INPUT: Entry humanized anti-ILT2/ILT4 antibody Hz73D1.v1 (antibody, human IgG1, kappa, N297G, V domains shown, Human IgG1 constant region with G at position 297, human kappa; also called Hz73D1.vi) VH: QVQLVQSGAEVKKPGASVKVSCKASGYTFTDYYINWVRQAPGQGLEWMGNVNPNDGGTTYNQKFKGRVTMTTDTSTSTAYMELRSLRSDDTAVYYCARREIYFYGTIYYYAMDYWGQGTLVTVSS VL: DIQLTQSPSFLSASVGDRVTITCRASESVDYYGNSFMYWYQQKPGKAPKLLIYFASNLESGVPSRFSGSGSGTEFTLTISSLQPEDFATYYCQQNNEDPWTFGGGTKVEIKR : reported kon = ?
OUTPUT: 360000

INPUT: Entry anti-ILT2/ILT4 antibody 73D1 (antibody, V domains shown, Mouse hybridoma antibody; Shares its light chain variable region with 73C4) VH: AVQLQQSGPELVKPGASVKISCKASGYTFTDYYINWVKQSHGKSLQWIGNVNPNDGGTTYNQKFKGKATLTVDKSSSTAYMELRSLTSEDSAVYYCARREIYFYGTIYYYAMDYWGQGTSVTVSS VL: DIVLTQSPASLAVSLGQRATISCRASESVDYYGNSFMYWYQQKPGRPPNLLIYFASNLESGVPARFSGSGSRTDFTLTIDPVEADDAATYYCQQNNEDPWTFGGGTKLEIK : reported kon = ?
OUTPUT: 400000
